- Test system: human PBMCs
- experiment.description: Human PBMC cytokine response assay (IFN-γ and IFN-α in cell-free medium by ELISA), with or without cPLGA
- Assay type: cell-based
- recorded.conditions: Donor 11; 20 μg/ml, 24 h
Strand notation (5' to 3'): a small letter for the sugar, then the base; units joined by * are phosphorothioate-linked, units joined directly phosphodiester-linked; [ ] holds rarer units or linkages, { } end groups; capitals alone tell only the bases. d = 2'-deoxy (DNA)
parameter.measured: IFN-α Donor 11
# respond with the number and nothing more

// lookup IFN-α Donor 11 for 5′-TCGTCG-3′ [Compound P-2, reference compound]
1

How about this substance: 5′-TCGTCGA-3′- C3-5′-ACGTTCG-3′-C3-5′-AGATGAT-3′ [Compound C-9]
1

How about this substance: 5′-TCGTCGA-3′-HEG-5′-ACGTTCG-3′-HEG-5′-AGATGAT-3′ [Compound C-8]
18

How about this substance: 5′-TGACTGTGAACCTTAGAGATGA-3′ (SEQ ID NO: 3) (dT*dG*dA*dC*dT*dG*dT*dG*dA*dA*dC*dC*dT*dT*dA*dG*dA*dG*dA*dT*dG*dA) [Compound P-7, negative control, reference compound]
1
